target: HLA-B*57:01; assay: IEDB peptide-MHC binding, purified MHC/competitive/fluorescence; filed as Kd, often an IC50 or EC50 that approximates it; bounds were set here for any values at or beyond the usual limits of such assays; conditions: source organism: Vibrio parahaemolyticus RIMD 2210633

seq string	Kd, µM
GTVPTDNPF	5.47

----------
biological target: HLA-B*40:01; assay: IEDB peptide-MHC binding, purified MHC/direct/fluorescence; filed as Kd, often an IC50 or EC50 that approximates it; bounds were set here for any values at or beyond the usual limits of such assays; details: source organism: Mycobacterium tuberculosis
Some sequences, each annotated with its measured Kd.

seq string	relation sign	Kd / µM
LEEIGILLL	=	0.011
FHSRFVQAL	≥	20
WEITYLGTT	=	3.26
WMRGRGRAL	≥	20

----------
target: HLA-B*07:02; test: IEDB peptide-MHC binding, purified MHC/competitive/fluorescence; bounds were set here for any values at or beyond the usual limits of such assays; details: source organism: Homo sapiens
pIC50: −log10 of the molar value.
recorded metric: pIC50

seq string	readout value
FPHTELANL	6.95

----------
Some sequences, each annotated with its measured Kd.
target: HLA-A*02:06; experiment: IEDB peptide-MHC binding, purified MHC/competitive/radioactivity; filed as Kd, often an IC50 or EC50 that approximates it; bounds were set here for any values at or beyond the usual limits of such assays; settings: source organism: Mammarenavirus brazilense

seq string	unit info	Kd
MSPALFFTFL	nM	834
LLPDALLFTL	nM	78.9

----------
Some sequences, each annotated with its measured Kd.
target: HLA-A*69:01; assay: IEDB peptide-MHC binding, purified MHC/direct/fluorescence; filed as Kd, often an IC50 or EC50 that approximates it; bounds were set here for any values at or beyond the usual limits of such assays; details: source organism: Mycobacterium tuberculosis

seq string	relation sign	Kd [nM]
SFYGYGFNV	=	52
WMRGRGRAL	≥	20000
WEITYLGTT	≥	20000
FHSRFVQAL	≥	20000
FMFDYIPPV	=	1.3
RIFPATHYV	=	18.8

----------
biological target: HLA-B*18:01; test: IEDB peptide-MHC binding, purified MHC/direct/fluorescence; filed as Kd, often an IC50 or EC50 that approximates it; bounds were set here for any values at or beyond the usual limits of such assays; conditions: source organism: Giardia lamblia ATCC 50803
pKd: −log10 of the molar value.

seq string	pKd
WEPPERHIL	≥ 9.00

----------
biological target: HLA-B*46:01; test: IEDB peptide-MHC binding, purified MHC/direct/fluorescence; filed as Kd, often an IC50 or EC50 that approximates it; bounds were set here for any values at or beyond the usual limits of such assays; settings: source organism: Burkholderia mallei

seq string	Kd
RRSLLAHVR	≥ 20 µM

----------
target: HLA-B*18:01; test: IEDB peptide-MHC binding, purified MHC/competitive/fluorescence; filed as Kd, often an IC50 or EC50 that approximates it; bounds were set here for any values at or beyond the usual limits of such assays; details: source organism: Orthohantavirus andesense
pKd: −log10 of the molar value.
recorded metric: pKd

seq string	readout value
VFTSRIQVI	≤ 4.70

----------
biological target: HLA-B*07:02; test: IEDB peptide-MHC binding, purified MHC/competitive/fluorescence; filed as Kd, often an IC50 or EC50 that approximates it; bounds were set here for any values at or beyond the usual limits of such assays; details: source organism: Yersinia pestis Nepal516
pKd: −log10 of the molar value.

seq string	target entity	pKd
LPLNRAYPL	HLA-B*07:02	8.20

----------
target: HLA-B*57:01; assay: IEDB peptide-MHC binding, purified MHC/competitive/radioactivity; filed as Kd, often an IC50 or EC50 that approximates it; bounds were set here for any values at or beyond the usual limits of such assays; conditions: source organism: Dengue virus 1 Singapore/S275/1990

seq string	Kd (nM)
KQIQRVETW	44.1

----------
biological target: HLA-A*26:01; experiment: IEDB peptide-MHC binding, purified MHC/competitive/radioactivity; filed as Kd, often an IC50 or EC50 that approximates it; bounds were set here for any values at or beyond the usual limits of such assays; settings: source organism: Dengue virus 2 Jamaica/1409/1983
pKd: −log10 of the molar value.
Some sequences, each annotated with its measured pKd.

seq string	target entity	pKd
TIMAAILAY	HLA-A*26:01	6.81
EKVDAIDGEY	HLA-A*26:01	5.03
DVKKDLISY	HLA-A*26:01	6.43

----------
target: HLA-A*02:17; experiment: IEDB peptide-MHC binding, purified MHC/competitive/radioactivity; filed as Kd, often an IC50 or EC50 that approximates it; bounds were set here for any values at or beyond the usual limits of such assays; settings: source organism: Dengue virus 4 Philippines/H241/1956
pKd: −log10 of the molar value.
Some sequences, each annotated with its measured pKd.

seq string	target entity	pKd
IILEFFLMV	HLA-A*02:17	6.74
SMAMTCIAV	HLA-A*02:17	7.13
KQLGQVMLLV	HLA-A*02:17	6.76
FLDLPLPWA	HLA-A*02:17	6.97

----------
target: HLA-B*38:01; assay: IEDB peptide-MHC binding, purified MHC/competitive/fluorescence; filed as Kd, often an IC50 or EC50 that approximates it; bounds were set here for any values at or beyond the usual limits of such assays; settings: source organism: Human immunodeficiency virus type 1 (MAL ISOLATE)
pKd: −log10 of the molar value.
recorded metric: pKd

seq string	readout value
GSEEIKSLY	≤ 4.70

----------
biological target: HLA-B*39:01; experiment: IEDB peptide-MHC binding, purified MHC/competitive/fluorescence; filed as Kd, often an IC50 or EC50 that approximates it; bounds were set here for any values at or beyond the usual limits of such assays; details: source organism: Zaire ebolavirus
pKd: −log10 of the molar value.
recorded metric: pKd

seq string	readout value
KLINTLFHA	≤ 4.70
FLILPQAKK	≤ 4.70
EAEKQLQQY	≤ 4.70

----------
target: HLA-A*31:01; test: IEDB peptide-MHC binding, purified MHC/direct/fluorescence; filed as Kd, often an IC50 or EC50 that approximates it; bounds were set here for any values at or beyond the usual limits of such assays; conditions: source organism: Mycobacterium avium 104

seq string	target entity	Kd
IAHVRDVVM	HLA-A*31:01	≥ 20 µM

----------
target: HLA-A*26:01; test: IEDB peptide-MHC binding, purified MHC/direct/fluorescence; filed as Kd, often an IC50 or EC50 that approximates it; bounds were set here for any values at or beyond the usual limits of such assays; conditions: source organism: Vibrio parahaemolyticus
pKd: −log10 of the molar value.

seq string	pKd
EIPGSPGSY	6.98

----------
molecular target: HLA-B*18:01; assay: IEDB peptide-MHC binding, purified MHC/competitive/fluorescence; filed as Kd, often an IC50 or EC50 that approximates it; bounds were set here for any values at or beyond the usual limits of such assays; conditions: source organism: Vibrio parahaemolyticus RIMD 2210633
recorded metric: Kd

seq string	readout value
GTVPTDNPF	≥ 20 µM

----------
target: HLA-A*68:02; assay: IEDB peptide-MHC binding, purified MHC/direct/fluorescence; filed as Kd, often an IC50 or EC50 that approximates it; bounds were set here for any values at or beyond the usual limits of such assays; conditions: source organism: Influenza A virus (A/Hong Kong/516/97(H5N1))
pKd: −log10 of the molar value.

seq string	pKd
SYINRTGTF	≤ 4.70

----------
target: HLA-A*30:01; test: IEDB peptide-MHC binding, purified MHC/competitive/radioactivity; filed as Kd, often an IC50 or EC50 that approximates it; bounds were set here for any values at or beyond the usual limits of such assays; conditions: source organism: Mammarenavirus brazilense
Some sequences, each annotated with its measured Kd.

seq string	target entity	unit info	relation sign	Kd
GSLLHGLWPY	HLA-A*30:01	nM	=	102
ESAQPGLLSY	HLA-A*30:01	nM	≥	70400

----------
molecular target: HLA-A*31:01; test: IEDB peptide-MHC binding, purified MHC/direct/fluorescence; filed as Kd, often an IC50 or EC50 that approximates it; bounds were set here for any values at or beyond the usual limits of such assays; details: source organism: Yersinia pestis Nepal516
recorded metric: Kd

seq string	recorded metric	readout value
QQSEARRML	Kd	≥ 20 µM

----------
biological target: HLA-A*02:11; assay: IEDB peptide-MHC binding, purified MHC/competitive/fluorescence; filed as Kd, often an IC50 or EC50 that approximates it; bounds were set here for any values at or beyond the usual limits of such assays; settings: source organism: Yersinia pestis Nepal516

seq string	unit info	Kd
YADGGQWYN	nM	56.2

----------
biological target: HLA-A*29:02; assay: IEDB peptide-MHC binding, purified MHC/direct/fluorescence; filed as Kd, often an IC50 or EC50 that approximates it; bounds were set here for any values at or beyond the usual limits of such assays; conditions: source organism: Bacillus anthracis str. 'Ames Ancestor'
recorded metric: Kd

seq string	recorded metric	readout value
TKAGMAQYL	Kd	≥ 20 µM
